# System: Polygonum convolvulus (POLCO)
# test name: Post-emergence herbicidal action against POLCO
# Type: in vivo
# experimental context: dosage 80 g/ha
measured metric: Post-emergence action against POLCO in %

In the examples that follow, each entry is paired with its recorded Post-emergence action against POLCO in %.
COC(=O)COc1nn(-c2ncccc2F)c(-c2cncc(F)c2)c1C1CC1 | 80%
COC(=O)COc1nn(-c2ncccc2C(F)(F)F)c(-c2cncc(F)c2)c1I | 80%
CCOC(=O)[C@@H](C)Oc1nn(-c2ncccc2F)c(-c2cncc(F)c2)c1Br | 90%
O=C(O)COc1nn(-c2ccccn2)c(-c2ccc(F)nc2)c1C(F)(F)F | 90%

Request: For the compound "CCOC(=O)[C@@H](C)Oc1nn(-c2ncccc2Cl)c(-c2ccc(F)nc2)c1Br" , what Post-emergence action against POLCO in % is on record?
Response: 80%

Request: Could you do the same for "CCOC(=O)[C@@H](C)Oc1nn(-c2ncccc2F)c(-c2ccc(F)nc2)c1C1CC1" , please?
Response: 80%

Request: Could you do the same for "CCOC(=O)CNC(=O)COc1nn(-c2ncccc2F)c(-c2ccc(OC)nc2)c1Br" , please?
Response: 80%

Request: Could you do the same for "CCOC(=O)COc1nn(-c2ccccn2)c(-c2ccc(F)nc2)c1I" , please?
Response: 80%

Request: Could you do the same for "C[C@@H](Oc1nn(-c2ccccn2)c(-c2ccc(F)nc2)c1Cl)C(=O)NCC(=O)O" , please?
Response: 80%

###

# Tested on: Polygonum convolvulus (POLCO)
# test name: Post-emergence herbicidal action against POLCO
# Assay type: in vivo
# experimental context: dosage 80 g/ha
This section presents compounds with their documented Post-emergence action against POLCO in % values.
Give just the numeric value; % need not be written.

In the examples that follow, each entry is paired with its recorded Post-emergence action against POLCO in %.
O=C(COc1nn(-c2ncccc2F)c(-c2ccc(F)nc2)c1C1CC1)OCC1CC1 | 90
COC(=O)C(C)NC(=O)[C@@H](C)Oc1nn(-c2ccccn2)c(-c2cncc(F)c2)c1Br (stereo partly shown) | 80
CCOC(=O)COc1nn(-c2ccccn2)c(-c2ccc(Cl)nc2)c1Cl | 80
O=C(O)COc1nn(-c2ccccn2)c(-c2cncc(F)c2)c1Cl | 80
COC(=O)COc1nn(-c2ncccc2C)c(-c2cncc(F)c2)c1Br | 90
C[C@@H](Oc1nn(-c2ccccn2)c(-c2ccc(F)nc2)c1Br)C(=O)O | 80

Now look at this entry.
Request: Which Post-emergence action against POLCO in % is reported with Polygonum convolvulus (POLCO) for this entry: "COC(=O)[C@@H](C)Oc1nn(-c2ncccc2F)c(-c2cncc(F)c2)c1Cl" ?
Response: 80
